Recorded values, source patent US20140154255A1.

- TGT: T1, human VEGF-A residues 27-191 of Accession #AAV38412 (human, UniProt P15692 27-191)
- T1 construct: range 27-191
- TEST_DESCRIPTION: BIAcore SPR
RECORDED_METRIC: koff (s⁻¹)
Numbers only, in s⁻¹.

In the examples that follow, each entry is paired with its recorded koff.
N31 H (anti-VEGF IgG) (antibody, V domains shown, copies: 2 + 2) VH: EVQLVESGGGLVQPGGSLRLSCAASGYTFTHYGMNWVRQAPGKGLEWVGWINTYTGEPTYAADFKRRFTFSLDTSKSTAYLQMNSLRAEDTAVYYCAKYPHYYGSSHWYFDVWGQGTLVTVSS VL: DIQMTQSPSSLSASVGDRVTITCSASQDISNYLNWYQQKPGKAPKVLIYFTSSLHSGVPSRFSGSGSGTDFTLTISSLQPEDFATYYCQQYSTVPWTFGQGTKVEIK ... 3.17e-05
T30 K (anti-VEGF IgG) (antibody, V domains shown, copies: 2 + 2) VH: EVQLVESGGGLVQPGGSLRLSCAASGYTFKNYGMNWVRQAPGKGLEWVGWINTYTGEPTYAADFKRRFTFSLDTSKSTAYLQMNSLRAEDTAVYYCAKYPHYYGSSHWYFDVWGQGTLVTVSS VL: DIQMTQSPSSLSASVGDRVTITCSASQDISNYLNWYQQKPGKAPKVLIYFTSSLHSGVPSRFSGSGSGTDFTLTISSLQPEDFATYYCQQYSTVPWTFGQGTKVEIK ... 8.53e-05
H97 A (anti-VEGF IgG) (antibody, V domains shown, copies: 2 + 2) VH: EVQLVESGGGLVQPGGSLRLSCAASGYTFTNYGMNWVRQAPGKGLEWVGWINTYTGEPTYAADFKRRFTFSLDTSKSTAYLQMNSLRAEDTAVYYCAKYPAYYGSSHWYFDVWGQGTLVTVSS VL: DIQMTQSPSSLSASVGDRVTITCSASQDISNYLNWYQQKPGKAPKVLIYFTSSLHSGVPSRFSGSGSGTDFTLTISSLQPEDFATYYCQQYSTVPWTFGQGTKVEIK ... 0.000451
91 (antibody, human IgG1, V domains shown) VH: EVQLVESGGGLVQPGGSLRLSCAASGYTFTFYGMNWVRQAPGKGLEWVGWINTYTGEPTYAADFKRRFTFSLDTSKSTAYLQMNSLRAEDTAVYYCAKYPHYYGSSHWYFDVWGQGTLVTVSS VL: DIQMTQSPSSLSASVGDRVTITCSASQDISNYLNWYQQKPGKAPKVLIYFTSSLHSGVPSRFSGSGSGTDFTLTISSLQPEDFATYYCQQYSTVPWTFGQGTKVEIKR ... 2.48e-05

Read the next record carefully.
// Input: T30 R (anti-VEGF IgG) (antibody, V domains shown, copies: 2 + 2) VH: EVQLVESGGGLVQPGGSLRLSCAASGYTFRNYGMNWVRQAPGKGLEWVGWINTYTGEPTYAADFKRRFTFSLDTSKSTAYLQMNSLRAEDTAVYYCAKYPHYYGSSHWYFDVWGQGTLVTVSS VL: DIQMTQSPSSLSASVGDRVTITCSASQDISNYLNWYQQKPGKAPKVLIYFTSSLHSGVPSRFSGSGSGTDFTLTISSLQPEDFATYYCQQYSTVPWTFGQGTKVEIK . Output its koff only.
6.76e-05
